Entries and their EC50 values follow.
# Tested target: UniProtKB P35414
# Sequence (P35414 whole entry, the tested form may be a part): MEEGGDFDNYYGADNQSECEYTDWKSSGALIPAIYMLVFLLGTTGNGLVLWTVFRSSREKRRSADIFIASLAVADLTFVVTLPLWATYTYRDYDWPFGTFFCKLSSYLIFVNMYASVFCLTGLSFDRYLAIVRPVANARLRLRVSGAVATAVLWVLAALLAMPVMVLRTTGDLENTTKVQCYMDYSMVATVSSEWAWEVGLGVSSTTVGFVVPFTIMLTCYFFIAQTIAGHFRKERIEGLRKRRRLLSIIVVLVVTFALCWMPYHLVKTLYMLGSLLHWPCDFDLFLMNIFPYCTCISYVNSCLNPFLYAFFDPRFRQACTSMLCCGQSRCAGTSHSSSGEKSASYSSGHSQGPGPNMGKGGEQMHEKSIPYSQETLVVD
# Experiment summary: APJ cAMP assay (DiscoverX enzyme fragment complementation; inhibition of forskolin-stimulated cAMP)
# Type: cell-based
# Condition context: CHO-K1 cell line stably expressing the APJ Receptor; EC80 forskolin; 30 minutes at 37° C.; read-out: Potency Range (APJ cAMP EC50)

Please review the following examples before continuing.
Query: Quote UniProtKB P35414 EC50 for entry CCOc1cccc(-c2nc3ncc(NS(=O)(=O)C4CCOCC4)nc3n2-c2c(OC)cccc2OC)n1 .
Reply: 1 to 100 nM

Query: Quote UniProtKB P35414 EC50 for entry CCOc1cccc(-c2nc3nc(Cl)c(NS(C)(=O)=O)nc3n2-c2c(OC)cncc2OC)n1 .
Reply: 1 to 100 nM

Query: Quote UniProtKB P35414 EC50 for entry CCOc1cccc(-c2nc3ncc(NS(=O)(=O)N4CCC(O)CC4)nc3n2-c2c(OC)cccc2OC)n1 .
Reply: 1 to 100 nM

Next:
Query: Quote UniProtKB P35414 EC50 for entry CC#CCS(=O)(=O)Nc1cnc2nc(-c3cccc(OCC)n3)n(-c3c(OC)cccc3OC)c2n1 .
Reply: 1 to 100 nM

Query: Quote UniProtKB P35414 EC50 for entry CCOc1cccc(-c2nc3ncc(NS(=O)(=O)N4CCCC4)nc3n2-c2c(OC)cccc2OC)n1 .
Reply: 1 to 100 nM

Query: Quote UniProtKB P35414 EC50 for entry CCOc1cccc(-c2nc3ncc(NS(=O)(=O)N(C)C4CC4)nc3n2-c2c(OC)cccc2OC)n1 .
Reply: < 1 nM
